OD value: recorded values
- tgt: T1, Biotin-huCGRPaSA (human, not fully specified; biotin (position not given))
- T1 construct: exact construct ('aSA') not explained; also called Biotin CGRPaSA; full-length (1-37) CGRP
- T1 peptide: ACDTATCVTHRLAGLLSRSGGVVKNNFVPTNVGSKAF
- assay.procedure: ELISA, transfection supernatant, biotin-CGRP on streptavidin; further: test concentration or dose not given here

binder | OD value [OD]
C51 (antibody, V domains shown, 1B2-HC + 1F5-LC1; chimeric, human constant regions) VH: EVQLQQSGPEVVKPGASVRISCQASGYTFTDYNMHWVKQSHGKSLEWIGYIFPYNGVAVYNRKFRSKATLIIDKSSTTAYMELRSLTSEDSAVYYCAREGLGGYWGQGTTLTVSS VL: DIVLTQSPASLAVSLGQRATISCKASQNIDFDGYAYMNWYQHKPGQPPRVLIYSVFNLESGIPARFSGSGSGTDFTLNIHPVEEEDAATYYCQQSHEVPYTFGGGTNLEIK | 3.04
C232 (antibody, V domains shown, 3C1-HC + 1A2-LC2; chimeric, human constant regions) VH: EVQLQQSGPELVKPGASMKISCKASGYSFTGYTMNWVKQSHGNNLEWIGLINPYIGNTHYNQKFKDKATFTVDRSSSTAYMALLSLTSEDSAVYYCARELDSGFDYWGQGTTLTVSS VL: DIVLTQSPASLAVSLGQRATISCKASQNIDYDGYAYLNWYQQKPGQPPKVLIYSVFNLESGIPARFSGSGSGTDFTLNIHPVEEEDAATYYCQQSNEFPYTFGGGTKLEVK | 3.28
